- method-summary: Ratio of tissue distribution between rat heart and blood after 5 min
- Format: ADME, organism-based
- test-conditions: heart and blood
observed-property: Kp at 5 min

- compound: "O[C@@H]1CCN(Cc2cccc([125I])c2)C[C@H]1N1CCC(c2ccccc2)CC1 (stereo in doubt; (+))"
  meas-value: 4.68

----------
- method-summary: Ratio of tissue distribution between rat heart and blood after 120 min
- Format: ADME, organism-based

- compound: "O[C@@H]1CCN(Cc2cccc([125I])c2)C[C@H]1N1CCC(c2ccccc2)CC1 (stereo in doubt; (+))"
  Kp at 2 h: 1.6

----------
- method-summary: Ratio of tissue distribution between rat heart and blood after 180 min
- Format: ADME, organism-based
observed-property: Kp at 3 h

- compound: "O[C@@H]1CCN(Cc2cccc([125I])c2)C[C@H]1N1CCC(c2ccccc2)CC1 (stereo in doubt; (-))"
  observed-property: "Kp at 3 h"
  meas-value: 5.32

----------
- method-summary: Ratio of effect of vesamicol on the accumulation between rat heart and blood in group 2
- Type: ADME, organism-based
observed-property: Kp

- molecule: "O[C@@H]1CCN(Cc2cccc([125I])c2)C[C@H]1N1CCC(c2ccccc2)CC1 (stereo in doubt; (-))"
  meas-value: 2.4

----------
- method-summary: Ratio of effect of vesamicol on the accumulation between rat brain and blood in group 2
- Assay type: ADME, organism-based

- molecule: "O[C@@H]1CCN(Cc2cccc([125I])c2)C[C@H]1N1CCC(c2ccccc2)CC1 (stereo in doubt; (-))"
  Kp: 5.59

----------
- method-summary: Ratio of effect of vesamicol on the accumulation between rat heart and blood in group 1
- Format: ADME, organism-based
observed-property: Kp

- compound: "O[C@@H]1CCN(Cc2cccc([125I])c2)C[C@H]1N1CCC(c2ccccc2)CC1 (stereo in doubt; (-))"
  meas-value: 2.75

----------
- method-summary: Ratio of tissue distribution between rat brain and blood after 5 min
- Assay type: ADME, organism-based
- test-conditions: brain and blood

- compound: "O[C@@H]1CCN(Cc2cccc([125I])c2)C[C@H]1N1CCC(c2ccccc2)CC1 (stereo in doubt; (+))"
  Kp at 5 min: 2.33

Origin of values: ChEMBL document CHEMBL1126715
